assay: Maximum concentration (Cmax) using 20%aqueous hydroxypropyl-beta-cyclodextrin (HPbetaCD) as vehicle. compound was administered orally to nude mice at a dose of 25 mg/kg; format: ADME, organism-based; design: dose 25 mg/kg, route oral; details: mouse, in vivo, po
reportedMetric: Cmax (nM)

1) CN(C)C(=O)C(=O)N1CCC(CC(=O)N2CCC([C@H]3c4ncc(Br)cc4CCc4cc(Cl)cc(Br)c43)CC2)CC1; 3200
2) CN(C)S(=O)(=O)N1CCC(CC(=O)N2CCC([C@H]3c4ncc(Br)cc4CCc4cc(Cl)cc(Br)c43)CC2)CC1; 490
3) O=C(CC1CCN(C(=O)Cn2cncn2)CC1)N1CCC([C@H]2c3ncc(Br)cc3CCc3cc(Cl)cc(Br)c32)CC1; 2150
4) NCC(=O)N1CCC(CC(=O)N2CCC([C@H]3c4ncc(Br)cc4CCc4cc(Cl)cc(Br)c43)CC2)CC1; 2920
